Give measured pIC50 for each item. Keep answers brief.
- system.tested: USP19 (Homo sapiens (Human), UniProt O94966)
- Sequence (O94966 whole entry): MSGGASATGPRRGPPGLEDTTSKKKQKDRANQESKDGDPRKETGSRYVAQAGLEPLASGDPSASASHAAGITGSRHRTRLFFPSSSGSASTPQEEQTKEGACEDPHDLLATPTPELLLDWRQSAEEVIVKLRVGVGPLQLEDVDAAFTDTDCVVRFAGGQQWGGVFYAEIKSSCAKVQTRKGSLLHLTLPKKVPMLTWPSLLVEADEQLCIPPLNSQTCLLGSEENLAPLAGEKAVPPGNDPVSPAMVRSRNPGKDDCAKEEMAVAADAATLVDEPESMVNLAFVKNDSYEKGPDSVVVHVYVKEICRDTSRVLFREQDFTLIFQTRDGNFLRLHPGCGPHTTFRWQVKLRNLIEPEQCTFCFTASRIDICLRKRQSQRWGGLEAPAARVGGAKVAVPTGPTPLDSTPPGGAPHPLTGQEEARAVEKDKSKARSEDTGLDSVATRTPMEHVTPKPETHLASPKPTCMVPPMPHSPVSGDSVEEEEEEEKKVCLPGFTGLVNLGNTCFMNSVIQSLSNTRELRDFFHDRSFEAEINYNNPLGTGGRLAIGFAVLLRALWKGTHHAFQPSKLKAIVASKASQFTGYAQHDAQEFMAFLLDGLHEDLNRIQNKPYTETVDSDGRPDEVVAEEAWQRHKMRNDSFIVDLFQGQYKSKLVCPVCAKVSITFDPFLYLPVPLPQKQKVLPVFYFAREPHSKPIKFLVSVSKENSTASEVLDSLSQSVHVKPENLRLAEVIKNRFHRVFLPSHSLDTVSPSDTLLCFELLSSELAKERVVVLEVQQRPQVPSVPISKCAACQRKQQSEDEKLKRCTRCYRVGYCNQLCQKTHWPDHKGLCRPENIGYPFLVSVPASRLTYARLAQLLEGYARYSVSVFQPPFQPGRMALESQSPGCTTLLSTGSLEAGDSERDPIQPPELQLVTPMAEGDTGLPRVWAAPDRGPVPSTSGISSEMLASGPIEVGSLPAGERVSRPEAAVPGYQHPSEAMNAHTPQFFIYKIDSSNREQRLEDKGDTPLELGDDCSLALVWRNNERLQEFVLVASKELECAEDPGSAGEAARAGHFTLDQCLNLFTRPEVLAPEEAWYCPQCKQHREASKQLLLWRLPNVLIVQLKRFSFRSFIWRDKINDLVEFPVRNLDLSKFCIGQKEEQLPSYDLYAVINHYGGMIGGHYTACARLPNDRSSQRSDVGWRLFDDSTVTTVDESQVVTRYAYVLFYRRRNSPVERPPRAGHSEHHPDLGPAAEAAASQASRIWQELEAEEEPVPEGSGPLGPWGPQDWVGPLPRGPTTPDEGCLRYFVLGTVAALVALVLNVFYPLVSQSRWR
pIC50: −log10 of the molar value.

I need pIC50 for every entry listed below, if you could help.
1. C[C@H](CC1CCCCC1)C(=O)N1CCC(O)(Cn2cc(C(=O)O)c(-c3ccccc3)cc2=O)C(C)(C)C1 (some centres unmarked) [Example 241]
2. CON(C)C(=O)c1cn(CC2(O)CCN(C(=O)C[C@@H](C)c3ccccc3)CC2)c(=O)cc1-c1ccccc1 [Example 97]
3. C[C@H](CC1CCCCC1)C(=O)N1CC[C@@](O)(Cn2cc(C(=O)N(C)C)c(-c3ccccc3F)cc2=O)C2(CCCC2)C1 [Example 226]
4. C[C@H](CC1CCCCC1)C(=O)N1CC[C@@](O)(Cn2cc(C(=O)N3CCNCC3)c(-c3ccccc3)cc2=O)C2(CCCC2)C1 [Example 212]

["5.30 to 6.30", "4.30 to 5.30", "> 6.30", "> 6.30"]

I need pIC50 for every entry listed below, if you could help.
1. CC(C)N(C)C(=O)c1cn(CC2(O)CCN(C(=O)C[C@@H](c3ccccc3)C(F)F)CC2)c(=O)cc1-c1ccccc1 [Example 71]
2. C[C@H](CC(=O)N1CCC(O)(Cn2cc(-c3ccccc3)c(N(C)C)cc2=O)CC1)c1ccccc1 [Example 11]
3. CC(C)N(C)C(=O)c1cn(CC2(O)CCN(C(=O)[C@H](C)CC3CCCCC3)CC2(C)C)c(=O)cc1-c1ccccc1 (mixture of isomers) [Example 73]
4. C[C@H](CC1CCCCC1)C(=O)N1CCC(O)(Cn2cnc(-c3ccccc3CO)cc2=O)C(C)(C)C1 (some centres unmarked) [Example 137]

4.30 to 5.30
3.60 to 4.30
> 6.30
5.30 to 6.30

I need pIC50 for every entry listed below, if you could help.
1. C[C@H](CC1CCCCC1)C(=O)N1CCC(O)(Cn2cc(C(=O)N3CCN(C)CC3)c(-c3ccccc3)cc2=O)C(C)(C)C1 (some centres unmarked) [Example 170]
2. CC(CC(F)(F)F)C(=O)N1CCC(O)(Cn2cnc(-c3ccccc3F)cc2=O)C(C)(C)C1 (centres unmarked) [Example 143]
3. C[C@H](CC1CCCCC1)C(=O)N1CCC(O)(Cn2cc(C(=O)N(C)C)c(-c3ccsc3)cc2=O)C2(CCCC2)C1 (some centres unmarked) [Example 155]
4. C[C@H](CC1CCCCC1)C(=O)N1CC[C@@](O)(Cn2cc(C(=O)N3CCNCC3)c(C3CC3)cc2=O)C2(CCCC2)C1 [Example 233]
5. CN(C)C(=O)c1cn(CC2(O)CCN(C(=O)C[C@@H](c3ccccc3)C(F)F)CC23CCCC3)c(=O)cc1-c1ccccc1 (some centres unmarked) [Example 180]
6. C[C@H](CC1CCCCC1)C(=O)N1CC[C@@](O)(Cn2cc(C(=O)N(C)C)c(C3CC3)cc2=O)C(C)(C)C1 [Example 220]

["> 6.30", "4.30 to 5.30", "> 6.30", "> 6.30", "4.30 to 5.30", "5.30 to 6.30"]
